Test Name: Plasma pharmacokinetics of chemotherapy in absence or presence of axitinib
Type: in vivo, human
Conditions Used: human, plasma, intravenous, CL, Mean (%CV), paclitaxel (+carboplatin) without axitinib, cycle 2 day 1, n=12
Recorded Metric: clearance (mL/min)
Field: numeric (mL/min). Do not append units.

Need clearance, item CC(=O)O[C@H]1C(=O)[C@@]2(C)[C@H]([C@H](OC(=O)c3ccccc3)[C@]3(O)C[C@H](OC(=O)[C@H](O)[C@@H](NC(=O)c4ccccc4)c4ccccc4)C(C)=C1C3(C)C)[C@]1(OC(C)=O)CO[C@@H]1C[C@@H]2O [Paclitaxel, paclitaxel]
360

----------
Type: in vivo
Conditions Used: human, plasma, oral, 5 mg b.i.d., Cmax, Mean (%CV), axitinib + paclitaxel/carboplatin, cycle 1 day 1, cohorts 1–3 pooled, dose-normalised to 5 mg b.i.d., n=12
Recorded Metric: Cmax (ng/mL)
Field: numeric (ng/mL). Do not append units.

Need Cmax, item CNC(=O)c1ccccc1Sc1ccc2c(/C=C/c3ccccn3)n[nH]c2c1
46

These measurements were taken from paper PMC3494447.
